target: full-length RORγt in Jurkat cells (Homo sapiens (Human)); assay: RORγt 5×RORE Assay in Jurkat Cells (Assay 2); type: cell-based; conditions: 5xRORE secreted Nanoluc luciferase reporter, 16-18 hrs, read-out: RORγt5X IC50 Range* (nM) (Assay 2)
Sequence (P51449 other isoform, or with tags, fused parts or gaps): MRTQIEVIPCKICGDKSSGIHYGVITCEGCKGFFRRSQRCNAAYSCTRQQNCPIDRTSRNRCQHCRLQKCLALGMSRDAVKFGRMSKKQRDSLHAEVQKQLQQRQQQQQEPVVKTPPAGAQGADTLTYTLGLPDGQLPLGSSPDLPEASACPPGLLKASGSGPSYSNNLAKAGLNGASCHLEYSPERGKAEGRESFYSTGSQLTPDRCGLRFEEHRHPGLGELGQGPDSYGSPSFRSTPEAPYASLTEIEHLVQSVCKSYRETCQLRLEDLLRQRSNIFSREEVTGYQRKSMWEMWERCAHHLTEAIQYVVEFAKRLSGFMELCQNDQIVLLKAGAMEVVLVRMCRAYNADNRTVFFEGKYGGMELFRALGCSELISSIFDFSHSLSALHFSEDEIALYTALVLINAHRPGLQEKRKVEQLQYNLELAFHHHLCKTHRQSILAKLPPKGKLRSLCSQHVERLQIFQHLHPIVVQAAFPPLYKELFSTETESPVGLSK
ASSAY ENDPOINT: IC50

COMPOUND: CCS(=O)(=O)N1CCC(CNC(=O)c2ccc3c(c2)CN(CC2CCC(OC)(C(F)(F)F)CC2)C3C(C)C)CC1 (single isomer, unassigned) [Compound 13b]
ASSAY ENDPOINT: IC50
RESULT: < 100 nM

// input: 8 compounds below; output: IC50 for each
1. CCS(=O)(=O)c1ccc(CNC(=O)c2ccc3c(c2)CN(C[C@H]2CO[C@H](C(F)(F)F)OC2)[C@H]3C(C)C)nc1 (single isomer, unassigned) [Compound 32a]
2. CCS(=O)(=O)c1ccc([C@H](CO)NC(=O)c2ccc3c(c2)CN(C[C@H]2CC[C@H](C(F)(F)F)CC2)[C@@H]3C(C)C)cc1
3. CCS(=O)(=O)c1ccc([C@@H](CO)NC(=O)c2ccc3c(c2)CN(C[C@H]2CC[C@H](C(F)(F)F)CC2)[C@@H]3C(C)C)cc1
4. CCS(=O)(=O)c1ccc(CNC(=O)c2ccc3c(c2)C(=O)N(Cc2ccc(C(F)(F)F)cc2)C3C(C)C)cc1 (single isomer, unassigned) [Compound 26a]
5. CC[C@@H]1c2ccc(C(=O)NCc3ccc(S(=O)(=O)NC)cn3)cc2CN1C[C@H]1CC[C@H](C(F)(F)F)CC1 [Compound 23b]
6. CCS(=O)(=O)c1ccc(CNC(=O)c2ccc3c(c2)CN(CC2CCC(O)(C(F)(F)F)CC2)C3C(C)C)cc1 (single isomer, unassigned) [Compound 12d]
7. CC[C@H]1c2ccc(C(=O)N[C@@H](COC(N)=O)c3ccc(S(=O)(=O)CC)cc3)cc2CN1C[C@H]1CC[C@H](C(F)(F)F)CC1 (single isomer, unassigned) [Compound 24a]
8. CC[C@H]1c2ccc(C(=O)NCc3ccc(S(=O)(=O)NC)cc3)cc2CN1C[C@H]1CC[C@H](C(F)(F)F)CC1

1: < 100 nM; 2: 100 to 1000 nM; 3: > 1000 nM; 4: < 100 nM; 5: 100 to 1000 nM; 6: < 100 nM; 7: < 100 nM; 8: < 100 nM

// input: 2 compounds below; output: IC50 for each
1. CCS(=O)(=O)c1ccc(CNC(=O)c2ccc3c(c2)CN(C[C@H]2CO[C@H](C(F)(F)F)OC2)[C@H]3C(C)C)nc1 (single isomer, unassigned) [Compound 32b]
2. CCS(=O)(=O)c1ccc(CNC(=O)c2ccc3c(c2)CN(CC2CCC(O)(C(F)(F)F)CC2)C3C(C)C)cc1 (single isomer, unassigned) [Compound 12c]

["> 1000 nM", "100 to 1000 nM"]

Data provenance: patent US9845308B2
